tested.on: Cytochrome P450 2C9 (Homo sapiens)
Sequence (P11712 whole entry): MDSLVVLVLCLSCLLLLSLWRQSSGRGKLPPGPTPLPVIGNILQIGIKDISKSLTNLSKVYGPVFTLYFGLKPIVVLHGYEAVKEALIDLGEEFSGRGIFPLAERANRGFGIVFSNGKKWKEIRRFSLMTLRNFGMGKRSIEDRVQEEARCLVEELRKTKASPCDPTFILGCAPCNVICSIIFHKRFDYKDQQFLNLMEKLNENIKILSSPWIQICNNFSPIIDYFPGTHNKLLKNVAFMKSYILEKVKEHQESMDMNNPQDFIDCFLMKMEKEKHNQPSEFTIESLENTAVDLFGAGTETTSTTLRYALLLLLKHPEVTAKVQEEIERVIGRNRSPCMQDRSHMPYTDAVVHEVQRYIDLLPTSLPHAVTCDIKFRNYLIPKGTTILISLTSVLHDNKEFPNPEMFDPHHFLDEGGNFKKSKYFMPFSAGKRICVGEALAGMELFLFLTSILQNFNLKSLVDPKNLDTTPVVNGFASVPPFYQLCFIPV
pIC50: −log10 of the molar value.
observable: pIC50

q: # get_value(readout='pIC50', item= CCOc1cc2ncc(C#N)c(Nc3ccc(OCc4cccc(F)c4)c(Cl)c3)c2cc1NC(=O)CC1CCSS1 (stereo unspecified) )
a: < 4.30

---

tested.on: Epidermal growth factor receptor (Homo sapiens, UniProt P00533, L861Q)
Sequence (P00533 25-1210 L861Q limits assumed): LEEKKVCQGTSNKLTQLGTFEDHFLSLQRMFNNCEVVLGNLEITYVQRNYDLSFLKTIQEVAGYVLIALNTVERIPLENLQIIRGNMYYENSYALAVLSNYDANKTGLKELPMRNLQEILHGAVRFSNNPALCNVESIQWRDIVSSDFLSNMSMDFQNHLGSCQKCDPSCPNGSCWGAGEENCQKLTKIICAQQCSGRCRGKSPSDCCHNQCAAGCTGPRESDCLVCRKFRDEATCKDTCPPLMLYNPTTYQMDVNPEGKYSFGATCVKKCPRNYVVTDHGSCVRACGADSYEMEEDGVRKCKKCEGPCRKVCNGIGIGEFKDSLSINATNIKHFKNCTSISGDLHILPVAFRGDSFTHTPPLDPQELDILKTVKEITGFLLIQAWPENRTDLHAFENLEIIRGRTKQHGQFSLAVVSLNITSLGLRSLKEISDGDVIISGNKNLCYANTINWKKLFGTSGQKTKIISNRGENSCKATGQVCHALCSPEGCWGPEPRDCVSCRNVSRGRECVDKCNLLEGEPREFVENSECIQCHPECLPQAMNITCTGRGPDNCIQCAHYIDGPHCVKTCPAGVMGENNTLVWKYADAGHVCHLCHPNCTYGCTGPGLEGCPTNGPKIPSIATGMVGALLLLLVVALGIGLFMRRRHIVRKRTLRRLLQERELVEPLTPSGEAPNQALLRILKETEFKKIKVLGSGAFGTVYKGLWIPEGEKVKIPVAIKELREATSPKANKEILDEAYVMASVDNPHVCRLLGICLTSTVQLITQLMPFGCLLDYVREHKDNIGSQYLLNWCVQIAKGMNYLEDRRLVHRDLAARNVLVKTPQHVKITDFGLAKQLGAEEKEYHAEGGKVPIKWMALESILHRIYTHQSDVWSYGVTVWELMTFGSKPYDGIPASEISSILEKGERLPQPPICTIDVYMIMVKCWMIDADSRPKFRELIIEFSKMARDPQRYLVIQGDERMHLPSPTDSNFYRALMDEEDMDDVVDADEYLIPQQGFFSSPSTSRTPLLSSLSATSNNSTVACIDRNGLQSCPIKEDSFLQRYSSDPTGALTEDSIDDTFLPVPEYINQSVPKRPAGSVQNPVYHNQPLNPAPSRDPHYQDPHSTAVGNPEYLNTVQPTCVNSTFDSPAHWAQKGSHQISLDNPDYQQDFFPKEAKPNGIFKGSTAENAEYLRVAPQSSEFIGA
assay.text: Binding affinity to human partial length EGFR L861Q mutant (R669 to V1011 residues) expressed in bacterial expression system by KinomeScan assay
observable: pKd
In textbook form, pKd equals minus log to base ten of the concentration in mol/L.

q: # get_value(readout='pKd', item= CCOc1cc2ncc(C#N)c(Nc3ccc(OCc4cccc(F)c4)c(Cl)c3)c2cc1NC(=O)CC1CCSS1 (stereo unspecified) )
a: 8.32

---

tested.on: Epidermal growth factor receptor (Homo sapiens, UniProt P00533, L747-S752DEL/P753S)
assay.text: Binding affinity to human partial length EGFR L747-S752del/P753S mutant expressed in bacterial expression system by KinomeScan assay
observable: Kd (nM)
Give the quantity in nM, number only.

q: # get_value(readout='Kd', item= CCOc1cc2ncc(C#N)c(Nc3ccc(OCc4cccc(F)c4)c(Cl)c3)c2cc1NC(=O)CC1CCSS1 (stereo unspecified) )
a: 12

---

tested.on: Epidermal growth factor receptor (Homo sapiens, UniProt P00533)
Sequence (P00533 whole entry): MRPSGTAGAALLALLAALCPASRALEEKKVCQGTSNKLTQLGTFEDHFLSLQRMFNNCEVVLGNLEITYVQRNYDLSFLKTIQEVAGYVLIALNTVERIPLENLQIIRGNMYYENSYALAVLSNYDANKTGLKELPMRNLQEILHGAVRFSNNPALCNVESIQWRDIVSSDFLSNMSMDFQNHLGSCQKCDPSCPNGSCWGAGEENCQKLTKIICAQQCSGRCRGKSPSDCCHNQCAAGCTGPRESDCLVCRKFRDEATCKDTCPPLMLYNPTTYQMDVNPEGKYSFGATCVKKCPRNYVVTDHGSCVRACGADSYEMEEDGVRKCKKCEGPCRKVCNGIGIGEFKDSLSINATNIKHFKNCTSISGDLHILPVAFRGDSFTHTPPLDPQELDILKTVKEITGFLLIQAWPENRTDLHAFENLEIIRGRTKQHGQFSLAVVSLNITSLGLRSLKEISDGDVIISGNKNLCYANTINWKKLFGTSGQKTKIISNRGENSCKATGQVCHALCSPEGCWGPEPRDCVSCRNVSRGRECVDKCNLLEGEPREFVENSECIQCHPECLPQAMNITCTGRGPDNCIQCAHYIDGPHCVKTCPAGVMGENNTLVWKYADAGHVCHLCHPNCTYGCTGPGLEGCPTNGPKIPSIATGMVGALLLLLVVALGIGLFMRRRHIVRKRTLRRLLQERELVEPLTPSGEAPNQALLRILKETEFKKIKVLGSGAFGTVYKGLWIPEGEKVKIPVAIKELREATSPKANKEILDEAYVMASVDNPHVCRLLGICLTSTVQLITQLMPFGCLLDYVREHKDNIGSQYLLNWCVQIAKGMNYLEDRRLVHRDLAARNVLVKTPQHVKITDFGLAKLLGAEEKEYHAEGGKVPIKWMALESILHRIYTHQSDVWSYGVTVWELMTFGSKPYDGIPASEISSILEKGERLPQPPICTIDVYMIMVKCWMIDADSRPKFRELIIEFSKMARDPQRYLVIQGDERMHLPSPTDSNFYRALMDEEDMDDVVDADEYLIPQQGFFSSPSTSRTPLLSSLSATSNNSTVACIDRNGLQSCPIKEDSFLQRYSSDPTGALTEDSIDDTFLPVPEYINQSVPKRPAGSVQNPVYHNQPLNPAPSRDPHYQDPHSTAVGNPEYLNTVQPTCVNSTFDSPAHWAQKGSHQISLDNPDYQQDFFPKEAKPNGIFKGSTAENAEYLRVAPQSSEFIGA
assay.text: Inhibition of probe binding to wild type EGFR (unknown origin) using rabbit reticulate lysate system after 1 hr by luminescence assay
This listing pairs molecules with measured pIC50.
In textbook form, pIC50 equals minus log to base ten of the concentration in mol/L.

q: Recall the recorded pIC50 for `N#Cc1cnc2cc(OC[C@@H](O)CO)c(NC(=O)C3CSSC3)cc2c1Nc1ccc(OCc2cccc(F)c2)c(Cl)c1` with Epidermal growth factor receptor (Homo sapiens, UniProt P00533) and state it.
a: 6.90

***
q: Recall the recorded pIC50 for `N#Cc1cnc2cc(OC[C@H](O)CO)c(NC(=O)C3CSSC3)cc2c1Nc1ccc(OCc2cccc(F)c2)c(Cl)c1` with Epidermal growth factor receptor (Homo sapiens, UniProt P00533) and state it.
a: 6.59

q: Recall the recorded pIC50 for Cc1ccc(Oc2ccc(Nc3c(C#N)cnc4ccc(NC(=O)CC5CCSS5)cc34)cc2C)cn1 (stereo not drawn) with Epidermal growth factor receptor (Homo sapiens, UniProt P00533) and state it.
a: 5.06

---

tested.on: Cytochrome P450 3A4 (Homo sapiens, UniProt P08684)
Sequence (P08684 whole entry): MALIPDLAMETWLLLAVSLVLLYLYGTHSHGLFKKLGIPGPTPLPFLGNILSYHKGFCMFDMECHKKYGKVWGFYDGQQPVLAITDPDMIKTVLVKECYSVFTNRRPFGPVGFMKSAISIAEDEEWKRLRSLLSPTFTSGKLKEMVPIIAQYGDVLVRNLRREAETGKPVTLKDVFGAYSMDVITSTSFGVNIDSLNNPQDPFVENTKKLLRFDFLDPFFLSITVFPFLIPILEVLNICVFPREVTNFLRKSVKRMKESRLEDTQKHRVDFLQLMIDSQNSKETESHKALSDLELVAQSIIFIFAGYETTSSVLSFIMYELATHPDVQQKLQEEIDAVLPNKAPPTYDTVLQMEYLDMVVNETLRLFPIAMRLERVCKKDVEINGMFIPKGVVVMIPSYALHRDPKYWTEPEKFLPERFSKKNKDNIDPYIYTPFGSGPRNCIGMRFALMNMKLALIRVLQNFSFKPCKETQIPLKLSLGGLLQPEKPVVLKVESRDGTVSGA
pIC50: −log10 of the molar value.
observable: pIC50

q: # get_value(readout='pIC50', item= CCOc1cc2ncc(C#N)c(Nc3ccc(OCc4cccc(F)c4)c(Cl)c3)c2cc1NC(=O)CC1CCSS1 (stereo unspecified) )
a: < 4.30

---

tested.on: Epidermal growth factor receptor (Homo sapiens, UniProt P00533, L858R)
assay.text: Binding affinity to human partial length EGFR L858R mutant (R669 to V1011 residues) expressed in bacterial expression system by kinomescan assay
observable: pKd
In textbook form, pKd equals minus log to base ten of the concentration in mol/L.

Some molecules with known pKd results, for comparison:
q: # get_value(readout='pKd', item= CCOc1cc2ncc(C#N)c(Nc3ccc(OCc4cccc(F)c4)c(Cl)c3)c2cc1NC(=O)CCCCC1CCSS1 (stereo not drawn) )
a: 7.49

q: # get_value(readout='pKd', item= `CCOc1cc2ncc(C#N)c(Nc3ccc(OCc4cccc(F)c4)c(Cl)c3)c2cc1NC(=O)C(CSC(C)=O)CSC(C)=O` )
a: 7.80

Here is the next item to consider.
q: # get_value(readout='pKd', item= CCOc1cc2ncc(C#N)c(Nc3ccc(OCc4cccc(F)c4)c(Cl)c3)c2cc1NC(=O)CC1CCSS1 (stereo not drawn) )
a: 8.02

---

tested.on: Receptor tyrosine-protein kinase erbB-2 (Homo sapiens, UniProt P04626)
Sequence (P04626 whole entry): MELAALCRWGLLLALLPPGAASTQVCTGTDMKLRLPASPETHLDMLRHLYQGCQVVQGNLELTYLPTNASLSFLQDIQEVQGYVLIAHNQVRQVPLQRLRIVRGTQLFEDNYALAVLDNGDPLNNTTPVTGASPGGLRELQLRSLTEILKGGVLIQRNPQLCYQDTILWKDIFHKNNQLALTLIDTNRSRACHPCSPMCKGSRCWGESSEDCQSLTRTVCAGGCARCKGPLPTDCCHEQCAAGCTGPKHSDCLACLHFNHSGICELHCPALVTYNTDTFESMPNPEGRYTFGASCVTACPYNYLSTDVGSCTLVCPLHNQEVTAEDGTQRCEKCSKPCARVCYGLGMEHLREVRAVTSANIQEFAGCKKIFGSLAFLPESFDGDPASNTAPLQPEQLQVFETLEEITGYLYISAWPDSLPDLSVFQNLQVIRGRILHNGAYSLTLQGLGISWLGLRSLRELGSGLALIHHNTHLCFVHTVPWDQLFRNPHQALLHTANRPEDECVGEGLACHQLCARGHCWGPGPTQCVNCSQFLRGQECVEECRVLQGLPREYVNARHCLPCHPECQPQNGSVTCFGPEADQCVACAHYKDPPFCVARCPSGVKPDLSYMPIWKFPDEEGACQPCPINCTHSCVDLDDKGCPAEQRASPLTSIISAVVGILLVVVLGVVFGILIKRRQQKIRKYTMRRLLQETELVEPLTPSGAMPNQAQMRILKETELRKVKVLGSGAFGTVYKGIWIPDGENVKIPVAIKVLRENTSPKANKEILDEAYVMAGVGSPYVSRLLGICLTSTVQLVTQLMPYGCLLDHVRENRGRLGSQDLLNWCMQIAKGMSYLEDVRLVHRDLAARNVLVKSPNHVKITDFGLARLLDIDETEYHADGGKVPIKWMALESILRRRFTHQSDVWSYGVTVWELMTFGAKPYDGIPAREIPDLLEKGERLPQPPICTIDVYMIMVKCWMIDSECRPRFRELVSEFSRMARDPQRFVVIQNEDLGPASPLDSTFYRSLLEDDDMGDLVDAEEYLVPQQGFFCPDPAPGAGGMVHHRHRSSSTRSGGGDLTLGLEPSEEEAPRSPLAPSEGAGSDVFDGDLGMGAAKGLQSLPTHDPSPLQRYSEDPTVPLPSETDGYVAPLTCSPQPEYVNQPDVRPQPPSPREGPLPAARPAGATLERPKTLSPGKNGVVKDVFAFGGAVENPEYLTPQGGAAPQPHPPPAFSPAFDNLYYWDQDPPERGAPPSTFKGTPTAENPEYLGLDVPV
assay.text: Inhibition of probe binding to HER2 (unknown origin) using rabbit reticulate lysate system after 1 hr by luminescence assay
observable: pIC50
In textbook form, pIC50 equals minus log to base ten of the concentration in mol/L.

q: # get_value(readout='pIC50', item= `COc1cc2ncnc(Nc3ccc(Oc4ccc(C)nc4)c(C)c3)c2cc1NC(=O)C1CSSC1` )
a: 6.23

q: # get_value(readout='pIC50', item= `N#Cc1cnc2cc(OC[C@@H](O)CO)c(NC(=O)C3CSSC3)cc2c1Nc1ccc(OCc2cccc(F)c2)c(Cl)c1` )
a: 6.78

q: # get_value(readout='pIC50', item= `CCOc1cc2ncc(C#N)c(Nc3ccc(OCc4cccc(F)c4)c(Cl)c3)c2cc1NC(=O)C1CSSC1` )
a: 6.14

q: # get_value(readout='pIC50', item= N#Cc1cnc2ccc(NC(=O)CC3CCSS3)cc2c1Nc1ccc(OCc2cccc(F)c2)c(Cl)c1 (stereo unspecified) )
a: 6.14

***
q: # get_value(readout='pIC50', item= CCOc1cc2ncc(C#N)c(Nc3ccc(OCc4cccc(F)c4)c(Cl)c3)c2cc1NC(=O)CC1CCSS1 (stereo unspecified) )
a: 6.80

---

tested.on: Epidermal growth factor receptor (Homo sapiens, UniProt P00533, L858R)
assay.text: Binding affinity to human partial length EGFR L858R mutant (R669 to V1011 residues) expressed in bacterial expression system under equilibrate/3-fold dilution/eqiulibrate condition by scanKINETIC assay
This listing pairs compounds with measured Kd.
Give the quantity in nM, number only.

q: # get_value(readout='Kd', item= `CC(=O)SCC(CSC(C)=O)C(=O)Nc1cc2c(Nc3ccc(OCc4cccc(F)c4)c(Cl)c3)c(C#N)cnc2cc1OC[C@H](O)CO` )
a: 58

Here is the next item to consider.
q: # get_value(readout='Kd', item= `N#Cc1cnc2cc(OC[C@@H](O)CO)c(NC(=O)C3CSSC3)cc2c1Nc1ccc(OCc2cccc(F)c2)c(Cl)c1` )
a: 8.4

---

tested.on: Cytochrome P450 2C8 (Homo sapiens)
Sequence (P10632 whole entry): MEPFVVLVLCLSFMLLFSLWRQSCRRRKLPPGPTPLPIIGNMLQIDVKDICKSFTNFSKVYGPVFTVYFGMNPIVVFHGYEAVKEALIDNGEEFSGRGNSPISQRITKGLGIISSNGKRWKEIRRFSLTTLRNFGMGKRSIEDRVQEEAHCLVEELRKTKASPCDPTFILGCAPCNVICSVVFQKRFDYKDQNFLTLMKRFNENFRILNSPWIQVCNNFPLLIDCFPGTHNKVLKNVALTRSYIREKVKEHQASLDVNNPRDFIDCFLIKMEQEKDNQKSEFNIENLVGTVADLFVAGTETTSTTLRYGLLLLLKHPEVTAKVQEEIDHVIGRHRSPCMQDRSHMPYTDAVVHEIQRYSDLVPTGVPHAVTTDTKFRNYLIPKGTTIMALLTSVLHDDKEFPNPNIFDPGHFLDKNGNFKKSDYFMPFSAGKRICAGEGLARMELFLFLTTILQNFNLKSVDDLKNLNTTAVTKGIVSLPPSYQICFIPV
observable: IC50

q: # get_value(readout='IC50', item= CCOc1cc2ncc(C#N)c(Nc3ccc(OCc4cccc(F)c4)c(Cl)c3)c2cc1NC(=O)CC1CCSS1 (stereo unspecified) )
a: > 50 µM

---

tested.on: Cytochrome P450 2C19 (Homo sapiens)
pIC50: −log10 of the molar value.
observable: pIC50

q: Recall the recorded pIC50 for CCOc1cc2ncc(C#N)c(Nc3ccc(OCc4cccc(F)c4)c(Cl)c3)c2cc1NC(=O)CC1CCSS1 (stereo unspecified) with Cytochrome P450 2C19 (Homo sapiens) and state it.
a: < 4.30

---

tested.on: Epidermal growth factor receptor (Homo sapiens, UniProt P00533)
assay.text: Inhibition of probe binding to wild type EGFR (unknown origin) using rabbit reticulate lysate system after 1 hr by luminescence assay
Entries whose IC50 is below 200 nM take true; entries at or above 200 nM take false.

Worked examples, 2 compounds total:
q: Here's an entry: `COc1cc2ncnc(Nc3ccc(Oc4ccc(C)nc4)c(C)c3)c2cc1NC(=O)C1CSSC1` . Is its IC50 below 200 nM?
a: false

q: Here's an entry: N#Cc1cnc2ccc(NC(=O)CC3CCSS3)cc2c1Nc1ccc(OCc2cccc(F)c2)c(Cl)c1 (centres undefined) . Is its IC50 below 200 nM?
a: true

***
q: Here's an entry: `COc1cc2ncnc(Nc3ccc(OCc4cccc(F)c4)c(Cl)c3)c2cc1NC(=O)C1CSSC1` . Is its IC50 below 200 nM?
a: true

q: Here's an entry: `CCOc1cc2ncc(C#N)c(Nc3ccc(OCc4cccc(F)c4)c(Cl)c3)c2cc1NC(=O)C1CSSC1` . Is its IC50 below 200 nM?
a: false

q: Here's an entry: CCOc1cc2ncc(C#N)c(Nc3ccc(OCc4cccc(F)c4)c(Cl)c3)c2cc1NC(=O)CC1CCSS1 (centres undefined) . Is its IC50 below 200 nM?
a: true

q: Here's an entry: `Cc1ccc(Oc2ccc(Nc3c(C#N)cnc4ccc(NC(=O)C5CSSC5)cc34)cc2C)cn1` . Is its IC50 below 200 nM?
a: false

q: Here's an entry: `CCOc1cc2ncc(C#N)c(Nc3ccc(OCc4cccc(F)c4)c(Cl)c3)c2cc1NC(=O)C(CSC(C)=O)CSC(C)=O` . Is its IC50 below 200 nM?
a: false

q: Here's an entry: COc1cc2ncnc(Nc3ccc(OCc4cccc(F)c4)c(Cl)c3)c2cc1NC(=O)CC1CCSS1 (centres undefined) . Is its IC50 below 200 nM?
a: true

q: Here's an entry: CCOc1cc2ncc(C#N)c(Nc3ccc(OCc4cccc(F)c4)c(Cl)c3)c2cc1NC(=O)CCCCC1CCSS1 (centres undefined) . Is its IC50 below 200 nM?
a: false
